Test: qHTS Assay for Lipid Storage Modulators in Drosophila S3 Cells
Conditions: BODIPY lipid droplet fluorescence, 18-24 h, cells fed with added oleic acid; series mostly up to 46.1 µM
Among all 320,000 compounds or so, about 2,100 (0.66%) were called active. Inconclusive results (about 53%) are left out. Calls come from the whole dose curve; as a rule, active = well fitted inhibition curve with a large enough effect in the signal ratio, with a control signal flat (not every such curve was filed as active); inconclusive = small, poorly fitted or top-dose-only effect, or effect the other way, or a change in a side signal; inactive = flat fitted curve, though single readings scatter; the % refers to the signal ratio. The sample holds actives, similar compounds and a random draw of the others, so the mix is not that of the screen.
Hello, when you answer, please use one of the following outcomes: active, inactive

Cc1cccc(Nc2nc(N)nc(CN3CCN(c4ccc(F)cc4)CC3)n2)c1 : inactive
C1=CC2CC1CC2CN1CCN(Cc2ccccc2)CC1 (stereo unspecified) : inactive

Below: the item to evaluate.
Look up the recorded call for CCCCNC(=O)[C@]1(C)CCC[C@@]2(C)C3CC[C@@]4(C)C[C@]3(CCC21)CC4=O (stereo partly specified) in this test.
active

###

Test: qHTS Assay for Lipid Storage Modulators in Drosophila S3 Cells
Conditions: BODIPY lipid droplet fluorescence, 18-24 h, cells fed with added oleic acid; series mostly up to 46.1 µM
Among all 320,000 compounds or so, about 2,100 (0.66%) were called active. Inconclusive results (about 53%) are left out. Calls come from the whole dose curve; as a rule, active = well fitted inhibition curve with a large enough effect in the signal ratio, with a control signal flat (not every such curve was filed as active); inconclusive = small, poorly fitted or top-dose-only effect, or effect the other way, or a change in a side signal; inactive = flat fitted curve, though single readings scatter; the % refers to the signal ratio. The sample as a whole holds a higher share of actives than the screen did.
Answer with one of the outcomes active, inactive

Examples from the recorded data:
O=C(N/N=C/c1ccco1)c1cc(-c2ccccc2)nc2ccccc12 : active
CCCCN1C(=O)C2NN=C(C(=O)OC)C2C1=O (stereo not drawn) : inactive
CC(C(=O)NC1CCS(=O)(=O)C1)N1C(=O)/C(=C/c2ccc(Cl)cc2)SC1=S (stereo not drawn) : active
CCOCCc1nnc(NC(=O)CCS(=O)(=O)c2ccccc2)s1 : inactive
Cc1ccnc(NC(=O)c2ccc([N+](=O)[O-])s2)c1 : active
O=C(COc1ccc(Cl)cc1Cl)N/N=C/c1ccc(OC2OC(CO)C(O)C(O)C2O)cc1 (stereo not drawn) : inactive
CC(C)c1ccc(/C=C2\SC(=O)N(CC(=O)NC3CCS(=O)(=O)C3)C2=O)cc1 (stereo not drawn) : active
CC(=O)Nc1ccc(S(=O)(=O)NCCC(=O)OCc2nc(N)nc(Nc3ccccc3C)n2)cc1 : inactive
Cc1cccc(NC(=O)c2sc(Cl)nc2C)c1C : inactive
O=C(c1ccc(C#CC2(O)CCCCC2)cc1)N1CCOCC1 : inactive

With those in mind, consider the next compound.
What classification did O=C(CN1C(=O)S/C(=C\c2ccccc2F)C1=O)NC1CCS(=O)(=O)C1 (stereo not drawn) end up with in this test?
inactive

###

Assay: qHTS Assay for Lipid Storage Modulators in Drosophila S3 Cells
Conditions: BODIPY lipid droplet fluorescence, 18-24 h, cells fed with added oleic acid; series mostly up to 46.1 µM
Screen size: about 320,000 compounds; about 2,100 (0.66%) were called active. Not shown: some 53% with an inconclusive outcome. Calls follow the shape of the dose curve; as a rule, active = well fitted inhibition curve with a large enough effect in the signal ratio, with a control signal flat (not every such curve was filed as active); inconclusive = small, poorly fitted or top-dose-only effect, or effect the other way, or a change in a side signal; inactive = flat fitted curve, though single readings scatter; the % refers to the signal ratio. This excerpt belongs to a sample that is enriched for actives.
Parameter call: string, one of active, inactive

These solved cases illustrate the format of a correct answer.
COc1cc2c(cc1OC)C(c1cccc(Cl)c1Cl)CC(=O)N2 (configuration not stated) : inactive
CCC(CC)C(=O)NCCc1ccc(S(N)(=O)=O)cc1 : inactive
Cc1ccc(/C=C/C(=O)Nc2sc(C)c(C)c2C(=O)OC(C)C)o1 : inactive

Outcome? `CCOc1ccccc1C(=O)n1nc2nc(C)cc(C)c2c1N`
inactive

###

Assay: qHTS Assay for Lipid Storage Modulators in Drosophila S3 Cells
Conditions: BODIPY lipid droplet fluorescence, 18-24 h, cells fed with added oleic acid; series mostly up to 46.1 µM
Screen size: about 320,000 compounds; about 2,100 (0.66%) were called active. Not shown: some 53% with an inconclusive outcome. Calls come from the whole dose curve; as a rule, active = well fitted inhibition curve with a large enough effect in the signal ratio, with a control signal flat (not every such curve was filed as active); inconclusive = small, poorly fitted or top-dose-only effect, or effect the other way, or a change in a side signal; inactive = flat fitted curve, though single readings scatter; the % refers to the signal ratio. Only a selection was taken, and actives are over-represented in it overall.
Field 'call' accepts label 1 (active), label 0 (inactive)

Solved cases below.
Cc1ccc(NC(=O)C2CCN(S(C)(=O)=O)CC2)cc1C : label 1
CCOC(=O)COc1ccc(S(=O)(=O)Nc2ccc(C)cc2)cc1 : label 0
CC(=O)N1CCN(CCN=CC2=C(O)CC(c3cccs3)CC2=O)CC1 (stereo not given) : label 1

Name the outcome recorded for `COCCOCC(=O)Nc1ccc(S(=O)(=O)Nc2cc(C)nc(C)n2)cc1` in the assay.
label 0

Can you look up the reported call for `COC(=O)COc1ccc(S(=O)(=O)Nc2ccc(C(N)=O)cc2)cc1` for me?
label 0

What classification did `COC(=O)COc1ccc(S(=O)(=O)Nc2ccc(NC(C)=O)cc2)cc1` end up with in this test?
label 1

Short answer needed: outcome of this test for `Cc1cc(NS(=O)(=O)c2ccc(NC(=O)CN3C(=O)c4ccccc4C3=O)cc2)nc(C)n1` ?
label 0

Recorded test call requested for C=CCNC(=S)N1CCN(CCN=CC2=C(O)CC(c3cccs3)CC2=O)CC1 (stereo not given)
label 0

Which outcome was entered for the compound `Cc1cc(C)nc(NS(=O)(=O)c2ccc(NC(=O)CN3C(=O)S/C(=C\c4ccccc4)C3=O)cc2)n1` in this test?
label 0

Outcome? `COc1ccc(NC(=O)C2CCN(S(C)(=O)=O)CC2)cc1OC`
label 0
